Biological target: humanen IL-4 Rezeptor (huIL-4R/Fc) (Homo sapiens, UniProt P24394)
Construct: die aus der extrazellulären Region von normalerweise membranständigen Rezeptoren bestehen
Sequence (P24394 26-232 limits assumed): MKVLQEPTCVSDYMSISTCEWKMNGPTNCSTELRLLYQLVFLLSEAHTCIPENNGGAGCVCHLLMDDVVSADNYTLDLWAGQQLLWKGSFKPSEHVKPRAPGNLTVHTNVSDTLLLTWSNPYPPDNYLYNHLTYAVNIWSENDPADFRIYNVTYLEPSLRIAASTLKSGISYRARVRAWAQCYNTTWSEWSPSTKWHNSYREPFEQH
Assay: Cell-free huIL-4 binding assay (IL-4 receptor test, ELISA with receptor/Fc fusion protein and biotinylated ligand)
Settings: huIL-4R/Fc 500 ng/ml; biotinylated huIL-4 100 ng/ml; 1 h room temperature; PBSA with 5 % DMSO; Abbildung 3
Excerpt: Aus der EP 488 170 A1 sind zellfreie Bindungsteste bekannt. Für ihre Durchführung werden rekombinante chimäre Proteine verwendet, die aus der extrazellulären Region von normalerweise membranständigen Rezeptoren bestehen, an deren Carboxyterminus die Fc-Region einer schweren Immunglobulinkette bestehend aus Hinge-, CH2- und CH3-Domäne fusioniert wurde. […]
pIC50: −log10 of the molar value.

- compound: "Cc1cc(O)c2c3c(c(O)c4c(c13)OC(C)C4(C)C)C(=O)C(O)(O)C2=O (stereo not shown) [Cillianon]"
  pIC50: 4.25

Data origin, for the record: patent EP0742215A1
